B1: MATN2 (parent)
chain: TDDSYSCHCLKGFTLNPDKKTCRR

Variants of: B1
measurement.description: protein stability index of a GFP-peptide fusion (GPS, HEK-293T) (PSI 1-6); higher = more stable;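 further: lentivirally expressed fusions sorted by FACS into six bins by GFP to DsRed ratio, PSI derived from sequencing read proportions per bin multiplied by bin number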
settings: c terminus: a fixed tail appended
quantity.measured: protein stability index

[[record]]
item_sequence = "TDDSYSCHCLKGSTLNPDKKTCRR [F13S]"
recorded_number = 2.21

[[record]]
item_sequence = "TDDSYSCHCLKGFTLNWDKKTCRR [P17W]"
recorded_number = 1.65

[[record]]
item_sequence = "TDDSYSCHCLKGFTLNPDKKTHRR [C22H]"
recorded_number = 2.18

[[record]]
item_sequence = "TDDSYSCHCLKGFTINPDKKTCRR [L15I]"
recorded_number = 2.12

[[record]]
item_sequence = "TDDSYSCHCLKGHTLNPDKKTCRR [F13H]"
recorded_number = 1.98

[[record]]
item_sequence = "TDDSYSCHCLKGFTLVPDKKTCRR [N16V]"
recorded_number = 2.56

